Each recorded value in this set is attributed to patent US7601333B2.

For each record, write down the corresponding remaining at 2 h, 100 nM.
# Test system: human ACE
# test details: In vitro degradation in the presence of human ACE
# Assay type: in vitro ADME
# stated conditions: human converting enzyme (human ACE); peptide 100 nM, human converting enzyme 5 mU, pH 7.5; T120 min; without captopril; read-out: percentage of peptide assayed relative to the control
Residues, ends and D or L forms follow the SMILES beside them.

### Prompt Endpoint output: remaining at 2 h, 100 nM of CC(=O)N[C@@H](CO)C(=O)N[C@@H](CC(=O)O)C(=O)N[C@@H](CCCCN)C(=O)N1CCC[C@H]1C(=O)O [AcSDKP, N-acetyl-Ser-Asp-Lys-Pro] (Ac-SDKP-OH; C-terminus assumed) . Value?
### Response 25%

### Prompt Could you do the same for CC(=O)N[C@@H](CO)C(=O)N[C@@H](CC(=O)O)C(=O)N[C@@H](CCCCN)C(=O)N1CCC[C@H]1C(N)=O [AcSDKP-NH2, N-acetyl-Ser-Asp-Lys-Pro-NH2] (Ac-SDKP-NH2) , please?
### Response 116%
